# credit: patent US20200262913A1

- TARGET OR TEST SYSTEM: T1, recombinant human IL-31 (hIL-31, BHK produced, A1277F, zcytor17lig CEE) (human, UniProt Q6EBC2 24-164)
- T1 construct: also called recombinant hIL-31
- T1 sequence: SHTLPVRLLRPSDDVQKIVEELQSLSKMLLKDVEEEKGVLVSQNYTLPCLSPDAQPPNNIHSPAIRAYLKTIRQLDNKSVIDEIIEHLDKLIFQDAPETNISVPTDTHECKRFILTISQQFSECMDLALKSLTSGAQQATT
- EXPERIMENT: SPR (Biacore), mAb amine-coupled to CM5 chip, hIL-31 injected
Lab note: anything with Kd below 1 nM is marked satisfied; values at 1 nM or higher are marked not satisfied.

| BINDER | CAT |
| --- | --- |
| humanized 292.12.3.1 construct clone 23 (12VH5-gly + HC(fback) + LC(D70Q, F71Y, T72S)) (antibody, human IgG4, V domains shown) VH: EVQLVQSGAEVKKPGESLKISCKASGYTLTRYWMQWVRQMPGKGLEWMGAIYPGDGDTRYSPSFQGQVTLTADKSISTAYLQWSSLKASDTAMYYCAFPDGYYAAPYGMDYWGQGTTVTVSS VL: DIQMTQSPSSLSASVGDRVTITCRASGNIHNYLAWYQQKPGKVPKLLIYNAKTLADGVPSRFSGSGSGTQYSLTISSLQPEDVATYYCQHFWSTPWTFGQGTKVEIKR | not satisfied |
| humanized 292.12.3.1 construct clone 35 (12VH1-gly + HC(F29L, R94F)) (antibody, human IgG4, V domains shown) VH: QVQLVQSGAEVKKPGASVKVSCKASGYTLTRYWMQWVRQAPGQGLEWMGAIYPGDGDTRYSQKFQGRVTMTRDTSISTVYMELSSLRSEDTAVYYCAFPDGYYAAPYGMDYWGQGTLVTVSS VL: DIQMTQSPSSLSASVGDRVTITCRASGNIHNYLAWYQQKPGKVPKLLIYNAKTLADGVPSRFSGSGSGTDFTLTISSLQPEDVATYYCQHFWSTPWTFGQGTKVEIKR | not satisfied |
| humanized 292.12.3.1 construct clone 10 (12VH1-gly + LC(fback)) (antibody, human IgG4, V domains shown) VH: QVQLVQSGAEVKKPGASVKVSCKASGYTFTRYWMQWVRQAPGQGLEWMGAIYPGDGDTRYSQKFQGRVTMTRDTSISTVYMELSSLRSEDTAVYYCARPDGYYAAPYGMDYWGQGTLVTVSS VL: DIQMTQSPSSLSASVGDRVTITCRASGNIHNYLAWYQQKPGKVPKLLIYNAKTLADGVPSRFSGSRSETQYSLTISSLQPEDVATYYCQHFWSTPWTFGQGTKVEIKR | not satisfied |
| humanized 292.12.3.1 construct clone 22 (12VH5-gly + HC(fback) + LC(G66R, G68E, D70Q, T72S)) (antibody, human IgG4, V domains shown) VH: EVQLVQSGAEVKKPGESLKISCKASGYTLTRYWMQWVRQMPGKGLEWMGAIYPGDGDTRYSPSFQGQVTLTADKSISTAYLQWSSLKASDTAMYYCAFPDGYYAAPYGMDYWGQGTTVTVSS VL: DIQMTQSPSSLSASVGDRVTITCRASGNIHNYLAWYQQKPGKVPKLLIYNAKTLADGVPSRFSGSRSETQFSLTISSLQPEDVATYYCQHFWSTPWTFGQGTKVEIKR | not satisfied |
| humanized 292.12.3.1 construct clone 25 (12VH1-gly + HC(F29L, R94F) + LC(F71Y)) (antibody, human IgG4, V domains shown) VH: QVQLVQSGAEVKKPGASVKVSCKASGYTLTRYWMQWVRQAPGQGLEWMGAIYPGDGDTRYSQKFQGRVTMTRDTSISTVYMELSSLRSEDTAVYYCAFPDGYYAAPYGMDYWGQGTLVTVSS VL: DIQMTQSPSSLSASVGDRVTITCRASGNIHNYLAWYQQKPGKVPKLLIYNAKTLADGVPSRFSGSGSGTDYTLTISSLQPEDVATYYCQHFWSTPWTFGQGTKVEIKR | satisfied |
| humanized 292.12.3.1 construct clone 17 (12VH1-gly + HC(fback) + LC(D70Q, F71Y, T72S)) (antibody, human IgG4, V domains shown) VH: QVQLVQSGAEVKKPGASVKVSCKASGYTLTRYWMQWVRQAPGQGLEWMGAIYPGDGDTRYSQKFQGRVTLTADKSISTAYMELSSLRSEDTAVYYCAFPDGYYAAPYGMDYWGQGTLVTVSS VL: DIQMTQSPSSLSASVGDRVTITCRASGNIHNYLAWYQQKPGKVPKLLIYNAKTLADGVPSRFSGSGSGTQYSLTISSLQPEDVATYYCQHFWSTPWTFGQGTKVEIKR | satisfied |
| humanized 292.12.3.1 construct clone 18 (12VH1-gly + HC(fback) + LC(G66R, G68E, F71Y)) (antibody, human IgG4, V domains shown) VH: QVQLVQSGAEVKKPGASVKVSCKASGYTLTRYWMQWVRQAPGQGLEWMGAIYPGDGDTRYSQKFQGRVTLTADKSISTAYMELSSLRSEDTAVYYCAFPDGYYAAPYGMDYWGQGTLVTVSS VL: DIQMTQSPSSLSASVGDRVTITCRASGNIHNYLAWYQQKPGKVPKLLIYNAKTLADGVPSRFSGSRSETDYTLTISSLQPEDVATYYCQHFWSTPWTFGQGTKVEIKR | not satisfied |
| humanized 292.12.3.1 construct clone 11 (12VH5-gly + HC(fback)) (antibody, human IgG4, V domains shown) VH: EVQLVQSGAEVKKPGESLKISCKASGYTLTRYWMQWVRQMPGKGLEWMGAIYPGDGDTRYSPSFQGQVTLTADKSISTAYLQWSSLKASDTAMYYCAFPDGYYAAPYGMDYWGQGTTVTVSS VL: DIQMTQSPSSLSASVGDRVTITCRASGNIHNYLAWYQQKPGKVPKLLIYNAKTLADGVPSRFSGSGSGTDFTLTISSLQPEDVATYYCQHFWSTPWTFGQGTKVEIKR | not satisfied |
| humanized 292.12.3.1 construct clone 36 (12VH1(germ)-gly + HC(F29L, T73K, R94F) + LC(F71Y)) (antibody, human IgG4, V domains shown) VH: QVQLVQSGAEVKKPGASVKVSCKASGYTLTRYWMQWVRQAPGQGLEWMGAIYPGDGDTRYSQKFQGRVTMTRDKSTSTVYMELSSLRSEDTAVYYCAFPDGYYAAPYGMDYWGQGTLVTVSS VL: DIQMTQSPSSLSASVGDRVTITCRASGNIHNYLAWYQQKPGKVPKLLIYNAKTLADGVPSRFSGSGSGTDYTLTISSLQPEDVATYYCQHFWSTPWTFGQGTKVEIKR | not satisfied |
